# System: TRPA1V1
# TEST_NAME: Intracellular calcium (Fluo-4, FLIPR) activation of TRPA1V1 cells (co-expressing TRPA1 and TRPV1) by GRAS compounds;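 also: HEK293 cells co-expressing TRPA1 and TRPV1, fluorescence read at 488/514 nm after baseline subtraction, recorded every 2 s over 10 min, ionomycin 10 µM and buffer as controls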
# Assay type: cell-based, human
# ASSAY_CONDITIONS: Table 1(c); 1 mM; relative to AITC 30 μM
Each entry falls into one class according to its A1V1 activation, % of agonist value; the ranges are low band = under 70%, middle band = from 70% up to 90%, high band = 90% and over

Consider the worked cases shown below.
INSERT INTO results (molecule, class_assignment) VALUES
  ('CC1=C(/C=C/C(C)=C/C=C/C(C)=C/CO)C(C)(C)CCC1', 'low band'),
  ('S=C=NCCc1ccccc1 [Phenethyl isothiocyanate]', 'middle band'),
  ('CC(=O)OCCC(C)C [Isoamyl acetate]', 'low band'),
  ('CCCCCC=CC(=O)OCC [Ethyl 2-octenoate]', 'high band'),
  ('CCCC/C=C/C=O [(E)-2-Heptenal]', 'high band'),
  ('CC(C)[C@@H]1CC[C@@H](C)C[C@H]1O (racemic)', 'low band');

Enquiry: Kindly identify the class of CCOC(=O)c1ccc(OC)cc1 [Ethyl p-anisate] .
Return: high band

Enquiry: Kindly identify the class of C=C(C)CCC[C@H](C)CCOC(=O)CC(C)C [Rhodinyl isovalerate] .
Return: low band
